Entry source: paper PMC12613848

# run-description: Plasma pharmacokinetics of DT2216 in patients, phase 1 dose escalation
# Format: in vivo, human
# study-conditions: human, plasma, iv, 0.08 mg/kg, Cycle 1 Day 22, 0.08 mg/kg IV BIW, plasma, mean (CV%), N = 1; read-out: AUClast
# Experimental: Dose escalation consisted of the administration of DT2216 intravenously twice weekly at several different doses outlined in protocol attached. The starting dose was 0.04 mg/kg, established based on pre-clinical toxicity studies. Safety was evaluated using CTCAE version 5.0. […] Patients were allowed a maximum of two intra-patient dose escalations. […] The extent of disease was evaluated using imaging studies and disease-appropriate tumor markers every 8 weeks from day 1 of the first cycle. […]
readout-type: AUC(0-t) (ng·h/mL)
One number for each entry, in ng·h/mL.

Req: Quickly give me recorded AUC(0-t) for Cc1ncsc1-c1ccc([C@H](C)NC(=O)[C@@H]2C[C@@H](O)CN2C(=O)[C@@H](NC(=O)CCCCCC(=O)N2CCN(CC[C@H](CSc3ccccc3)Nc3ccc(S(=O)(=O)NC(=O)c4ccc(N5CCN(CC6=C(c7ccc(Cl)cc7)CCC(C)(C)C6)CC5)cc4)cc3S(=O)(=O)C(F)(F)F)CC2)C(C)(C)C)cc1 [DT2216]
Resp: 9910
